test: Photostability, percentage remaining undegraded under illumination or in the dark; details: percentage remaining undegraded after 24 hours illumination
Field 'label' (enum: Y / N). Set to Y when Photostability 24 hours is strictly under 20%; else N.

## Task Problem: For the compound Cc1nc2cc(N3CC[C@@]4(O)C(=O)c5cc(C)c(C)cc5N=C34)ccc2o1 , is Photostability 24 hours under 20%?
## Result Y

## Task Problem: For the compound Cc1ccc2c(c1)C(=O)[C@]1(O)CCN(c3ccccc3)C1=N2 [Blebbistatin, reference compound] , is Photostability 24 hours under 20%?
## Result Y

## Task Problem: For the compound CCC1=CC2N=C3N(c4ccc5ncccc5c4)CC[C@@]3(O)C(=O)C2S1 (some centres unmarked) , is Photostability 24 hours under 20%?
## Result N

## Task Problem: For the compound Cn1ncc2c1N=C1N(c3ccccc3)CC[C@@]1(O)C2=O , is Photostability 24 hours under 20%?
## Result N

## Task Problem: For the compound Cc1cc2c(cc1C)C(=O)[C@]1(O)CCN(c3ccc4c(c3)OCCN4)C1=N2 , is Photostability 24 hours under 20%?
## Result N

## Task Problem: For the compound Cc1cc2c(cc1C)C(=O)[C@]1(O)CCN(c3cnc4c(c3)OCCN4)C1=N2 , is Photostability 24 hours under 20%?
## Result N

## Task Problem: For the compound N#Cc1ccc(N2CC[C@@]3(O)C(=O)c4cc(C(F)(F)F)ccc4N=C23)cc1 , is Photostability 24 hours under 20%?
## Result Y

## Task Problem: For the compound Cc1ccc2c(c1)C(=O)[C@]1(O)CCN(c3ccc4ccsc4c3)C1=N2 , is Photostability 24 hours under 20%?
## Result Y

## Task Problem: For the compound Cc1cc(C)c2c(c1)N=C1N(c3ccc4ncccc4c3)CC[C@@]1(O)C2=O , is Photostability 24 hours under 20%?
## Result N

## Task Problem: For the compound Cc1ccc2c(c1)C(=O)[C@]1(O)CCN(c3ccn4nccc4c3)C1=N2 , is Photostability 24 hours under 20%?
## Result N

## Task Problem: For the compound Cc1ccc2c(c1)C(=O)[C@]1(O)CCN(c3ccc4ccncc4c3)C1=N2 , is Photostability 24 hours under 20%?
## Result Y

## Task Problem: For the compound O=C1c2cc(Cl)c(Cl)cc2N=C2N(c3ccccc3)CC[C@@]12O , is Photostability 24 hours under 20%?
## Result Y

## Task Problem: For the compound CCc1nc2cc(N3CC[C@@]4(O)C(=O)c5cc(C)c(C)cc5N=C34)ccc2s1 , is Photostability 24 hours under 20%?
## Result Y

## Task Problem: For the compound Cc1ccc(N2CC[C@@]3(O)C(=O)c4cc(F)c(C)cc4N=C23)cc1 , is Photostability 24 hours under 20%?
## Result Y

## Task Problem: For the compound Cc1cc2c(cc1C)C(=O)[C@]1(O)CCN(c3cccc(Cl)c3)C1=N2 , is Photostability 24 hours under 20%?
## Result N

## Task Problem: For the compound Cc1cc2c(cc1Cl)C(=O)[C@]1(O)CCN(c3ccccc3)C1=N2 , is Photostability 24 hours under 20%?
## Result Y

## Task Problem: For the compound Cc1cccc(N2CC[C@@]3(O)C(=O)c4cc(C)c(C(F)(F)F)cc4N=C23)c1 , is Photostability 24 hours under 20%?
## Result N

====

experiment: Photostability, percentage remaining undegraded under illumination or in the dark; conditions: percentage remaining undegraded after 24 hours illumination
What Photostability 24 hours was measured for each of the following?
A number alone suffices; assume %.

## Task Query (molecule): COc1cccc(N2CC[C@@]3(O)C(=O)c4cc(C)ccc4N=C23)c1 ; field requested: Photostability 24 hours
## Result 12.1

## Task Query (molecule): Cc1cc2c(cc1C)C(=O)[C@]1(O)CCN(c3ccc4ncc(CN(C)C)cc4c3)C1=N2 ; field requested: Photostability 24 hours
## Result 2.9

## Task Query (molecule): COc1cccc(N2CC[C@@]3(O)C(=O)c4cc(C)c(C)cc4N=C23)c1 [BPN-0026496] ; field requested: Photostability 24 hours
## Result 3.5

## Task Query (molecule): Cc1ccc2c(c1)C(=O)[C@]1(O)CCN(c3ccc4cccnc4c3)C1=N2 ; field requested: Photostability 24 hours
## Result 31.3

====

molecular target: Rabbit skeletal myosin; experiment: Skeletal muscle myosin II actin-activated ATPase assay; settings: 20 nM skeletal muscle myosin II; read-out: SKMMII KI
pKi: −log10 of the molar value.
Everything with pKi lower than 6 is Criterion not met; everything else, including exactly 6, is Criterion met.

## Task Does the reported pKi for Cc1ccc2cc(N3CC[C@@]4(O)C(=O)c5cc(C)sc5N=C34)ccc2n1 fall at or above the 6 mark?
## Result Criterion not met

## Task Does the reported pKi for Cc1cc(N2CC[C@@]3(O)C(=O)c4cc(C)c(C)cc4N=C23)ccn1 fall at or above the 6 mark?
## Result Criterion not met

## Task Does the reported pKi for Cc1cc2c(s1)C(=O)[C@]1(O)CCN(c3ccc(C#N)c(Cl)c3)C1=N2 fall at or above the 6 mark?
## Result Criterion not met

## Task Does the reported pKi for COc1ccc(N2CC[C@@]3(O)C(=O)c4cc(C)c(C)cc4N=C23)cn1 fall at or above the 6 mark?
## Result Criterion met

## Task Does the reported pKi for Cc1ccc2c(c1)C(=O)[C@]1(O)CCN(c3ccc4occc4c3)C1=N2 fall at or above the 6 mark?
## Result Criterion not met

## Task Does the reported pKi for Cc1cc2c(cc1C)C(=O)[C@]1(O)CCN(c3ccc4nc(N)ccc4c3)C1=N2 fall at or above the 6 mark?
## Result Criterion not met

## Task Does the reported pKi for Cc1cc2c(cc1C)C(=O)[C@]1(O)CCN(c3cnc(C)c(C)c3)C1=N2 [BPN-0028731] fall at or above the 6 mark?
## Result Criterion not met

## Task Does the reported pKi for Cc1cc2c(s1)N=C1N(c3ccc4ncccc4c3)CC[C@@]1(O)C2=O fall at or above the 6 mark?
## Result Criterion not met

## Task Does the reported pKi for COc1ccc(N2CC[C@@]3(O)C(=O)c4cc(C)c(C)cc4N=C23)cc1 fall at or above the 6 mark?
## Result Criterion met

## Task Does the reported pKi for Cc1ccc2c(c1)C(=O)[C@]1(O)CCN(c3ccc(Cl)c(C)c3)C1=N2 fall at or above the 6 mark?
## Result Criterion not met

## Task Does the reported pKi for Cc1ccc2c(c1)C(=O)[C@]1(O)CCN(c3ccc(C#N)c(Cl)c3)C1=N2 fall at or above the 6 mark?
## Result Criterion not met

====

molecular target: Bovine cardiac myosin (Bos taurus (Bovine), UniProt Q9BE39); assay: Cardiac muscle myosin II actin-activated ATPase assay (NADH-coupled); format: biochemical; design: key: NMII-sel: no Ki value for cardiac myosin II could be determined; the compounds had no detectable inhibitory properties versus the cardiac myosin II; conditions: cardiac myosin II Ki over nonmuscle myosin II EC50
Sequence (Q9BE39 whole entry): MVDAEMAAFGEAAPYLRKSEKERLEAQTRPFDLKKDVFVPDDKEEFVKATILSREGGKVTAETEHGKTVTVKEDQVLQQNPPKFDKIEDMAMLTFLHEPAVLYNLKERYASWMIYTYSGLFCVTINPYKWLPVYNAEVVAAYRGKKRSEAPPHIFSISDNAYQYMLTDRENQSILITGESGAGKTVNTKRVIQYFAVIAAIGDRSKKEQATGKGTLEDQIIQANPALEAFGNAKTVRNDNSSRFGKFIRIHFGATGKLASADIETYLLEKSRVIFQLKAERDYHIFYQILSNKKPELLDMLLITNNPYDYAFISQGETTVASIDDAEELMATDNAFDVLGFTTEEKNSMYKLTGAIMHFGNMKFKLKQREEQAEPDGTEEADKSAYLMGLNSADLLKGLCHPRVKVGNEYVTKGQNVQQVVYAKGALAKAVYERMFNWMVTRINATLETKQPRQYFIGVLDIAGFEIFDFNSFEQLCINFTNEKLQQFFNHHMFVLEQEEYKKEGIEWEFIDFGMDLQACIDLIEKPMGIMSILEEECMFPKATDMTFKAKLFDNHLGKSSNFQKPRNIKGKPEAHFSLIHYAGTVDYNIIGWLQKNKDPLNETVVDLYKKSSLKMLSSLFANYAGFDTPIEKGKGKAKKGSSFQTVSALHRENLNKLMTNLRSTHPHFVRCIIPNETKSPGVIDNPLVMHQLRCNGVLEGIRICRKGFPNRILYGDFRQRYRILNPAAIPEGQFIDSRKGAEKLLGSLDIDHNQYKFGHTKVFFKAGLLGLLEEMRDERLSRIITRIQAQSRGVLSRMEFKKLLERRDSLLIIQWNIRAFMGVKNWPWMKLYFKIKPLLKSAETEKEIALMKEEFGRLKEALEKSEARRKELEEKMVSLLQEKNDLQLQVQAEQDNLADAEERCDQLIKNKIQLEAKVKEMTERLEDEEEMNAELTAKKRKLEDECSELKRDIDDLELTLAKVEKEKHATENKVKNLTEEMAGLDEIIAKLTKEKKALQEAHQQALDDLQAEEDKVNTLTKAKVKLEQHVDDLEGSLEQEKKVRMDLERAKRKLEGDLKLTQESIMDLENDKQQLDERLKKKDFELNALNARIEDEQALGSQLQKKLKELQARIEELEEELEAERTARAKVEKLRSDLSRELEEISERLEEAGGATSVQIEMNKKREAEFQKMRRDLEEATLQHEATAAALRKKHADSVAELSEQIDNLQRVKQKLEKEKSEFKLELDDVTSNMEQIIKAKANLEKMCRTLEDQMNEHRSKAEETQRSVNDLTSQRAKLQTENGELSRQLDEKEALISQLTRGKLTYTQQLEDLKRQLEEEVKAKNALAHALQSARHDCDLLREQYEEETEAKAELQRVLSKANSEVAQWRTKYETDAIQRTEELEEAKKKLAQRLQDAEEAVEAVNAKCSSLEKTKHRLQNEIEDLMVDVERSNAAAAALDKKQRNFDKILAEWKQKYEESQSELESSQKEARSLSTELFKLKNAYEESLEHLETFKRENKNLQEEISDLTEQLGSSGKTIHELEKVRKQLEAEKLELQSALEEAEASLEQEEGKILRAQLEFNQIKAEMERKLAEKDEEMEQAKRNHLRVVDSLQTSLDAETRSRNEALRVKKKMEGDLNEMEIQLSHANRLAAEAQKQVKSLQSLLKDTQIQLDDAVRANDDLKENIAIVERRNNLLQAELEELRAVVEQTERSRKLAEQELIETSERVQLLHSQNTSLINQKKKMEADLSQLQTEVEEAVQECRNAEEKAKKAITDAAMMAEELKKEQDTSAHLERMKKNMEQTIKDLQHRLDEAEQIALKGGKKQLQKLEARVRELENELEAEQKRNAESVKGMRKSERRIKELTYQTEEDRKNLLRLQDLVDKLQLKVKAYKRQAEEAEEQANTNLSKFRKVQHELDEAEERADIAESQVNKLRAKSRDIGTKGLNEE
Sequence (P85100 whole entry partner): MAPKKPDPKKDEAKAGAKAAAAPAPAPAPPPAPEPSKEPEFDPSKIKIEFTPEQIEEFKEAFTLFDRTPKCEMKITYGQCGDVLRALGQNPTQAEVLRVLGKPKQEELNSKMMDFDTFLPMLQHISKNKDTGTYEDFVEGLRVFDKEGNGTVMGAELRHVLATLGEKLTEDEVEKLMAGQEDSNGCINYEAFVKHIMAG
Sequence (Q3SZE5 whole entry partner): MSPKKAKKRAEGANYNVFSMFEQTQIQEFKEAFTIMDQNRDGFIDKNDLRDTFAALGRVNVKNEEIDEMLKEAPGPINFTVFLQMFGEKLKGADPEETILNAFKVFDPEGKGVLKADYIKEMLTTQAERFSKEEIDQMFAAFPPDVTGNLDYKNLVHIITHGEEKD
Reported Property: Ratio CMMII:NMII Ki/EC50

As a guide, the following entries are already answered.
## Task Query (compound): O=C1c2c(sc3c2CCCC3)N=C2N(c3ccc4ncccc4c3)CC[C@@]12O ; field requested: Ratio CMMII:NMII Ki/EC50
## Result NMII-sel

## Task Query (compound): Cc1cc2c(s1)N=C1N(c3cccc(Br)c3)CC[C@@]1(O)C2=O ; field requested: Ratio CMMII:NMII Ki/EC50
## Result 14.0

## Task Query (compound): COc1ccc2cc(N3CC[C@@]4(O)C(=O)c5cc(C)c(C)cc5N=C34)ccc2n1 ; field requested: Ratio CMMII:NMII Ki/EC50
## Result NMII-sel

## Task Query (compound): Cc1ccc2c(c1)C(=O)[C@]1(O)CCN(c3ccc4cncn4c3)C1=N2 ; field requested: Ratio CMMII:NMII Ki/EC50
## Result 3.8

## Task Query (compound): Cc1cc2c(s1)N=C1N(c3ccc(C#N)c(C)c3)CC[C@@]1(O)C2=O ; field requested: Ratio CMMII:NMII Ki/EC50
## Result 3.3

## Task Query (compound): Cc1cc2c(cc1C)C(=O)[C@]1(O)CCN(c3ccc4sc(C(C)C)nc4c3)C1=N2 ; field requested: Ratio CMMII:NMII Ki/EC50
## Result NMII-sel

## Task Query (compound): Cc1cc2c(cc1C)C(=O)[C@]1(O)CCN(c3ccc4ncc(CN(C)C)cc4c3)C1=N2 ; field requested: Ratio CMMII:NMII Ki/EC50
## Result NMII-sel

Now examine the next entry.
## Task Query (compound): O=C1c2cc(C(F)(F)F)ccc2N=C2N(c3ccc4ncccc4c3)CC[C@@]12O ; field requested: Ratio CMMII:NMII Ki/EC50
## Result NMII-sel

====

What Ki was measured for each of the following?
target: Rabbit skeletal myosin; experiment: Skeletal muscle myosin II actin-activated ATPase assay; conditions: 20 nM skeletal muscle myosin II; read-out: SKMMII KI
A number alone suffices; assume µM.

## Task Query (compound): Cc1cc2c(cc1C)C(=O)[C@]1(O)CCN(c3ccc4nc(CN(C)C)ccc4c3)C1=N2 [BPN-0028897] ; field requested: Ki
## Result 110

## Task Query (compound): Cc1cccc(N2CC[C@@]3(O)C(=O)c4cc(F)c(C)cc4N=C23)c1 [BPN-0026620] ; field requested: Ki
## Result 16

## Task Query (compound): Cc1ccc2c(c1)C(=O)[C@]1(O)CCN(c3cnc4sccc4c3)C1=N2 [BPN-0027410] ; field requested: Ki
## Result 1.6

## Task Query (compound): Cc1ccc2c(c1)C(=O)[C@]1(O)CCN(c3ccc4cncn4c3)C1=N2 [BPN-0027406] ; field requested: Ki
## Result 7.5
